Read-out: Interleukin-8 (IL8), CXCL8 (gene 3576)
Protocol details: BSK_hDFCGF_IL8: BioMAP Diversity Plus: hDFCGF Assay for Interleukin-8 (IL8) Biomarker Activity (AID 2283058)
Condition label: primary human foreskin fibroblasts; actives raise or lower the signal
The source made the active and inactive calls. How the source made its calls: active means hit-call score of the fitted dose curve at least 0.9, where 1 is the maximum; inactive means score below 0.9.
Possible outcomes: active, inactive

[
  {
    "Compound": "CC1(C)C(=O)N(Br)C(=O)N1Br",
    "Classification": "inactive"
  },
  {
    "Compound": "O=C(O)c1cccc(N(Cc2cccnc2)c2ccc(OC(F)F)c(OC(F)F)c2)c1",
    "Classification": "inactive"
  },
  {
    "Compound": "O=C(O)c1cccc(Oc2ccccc2)c1",
    "Classification": "inactive"
  },
  {
    "Compound": "CC(=O)OCCC(C)C",
    "Classification": "inactive"
  },
  {
    "Compound": "Nc1cccc(N)c1",
    "Classification": "inactive"
  },
  {
    "Compound": "CN(C)c1ccc(Cc2ccc(N(C)C)cc2)cc1",
    "Classification": "inactive"
  },
  {
    "Compound": "CCCCC(CC)COC(=O)CCCCCCCCC(=O)OCC(CC)CCCC (stereo not drawn)",
    "Classification": "inactive"
  },
  {
    "Compound": "CC[C@H]1CC[C@H](NCc2cc3c(cc2OC)[C@H]2C[C@H]2C(=O)N3C)[C@H](c2ccccc2)N1",
    "Classification": "inactive"
  },
  {
    "Compound": "Cc1c(-c2cccnc2)c2ccccc2n1CCCCC(=O)O",
    "Classification": "inactive"
  },
  {
    "Compound": "O=C(O)CC(O)C(=O)O (stereo not drawn)",
    "Classification": "inactive"
  },
  {
    "Compound": "CCCN(C1CCN(C(=O)C2CCNCC2)CC1)[C@@H]1CCc2ccc(OC)cc2C1",
    "Classification": "inactive"
  },
  {
    "Compound": "CC(O)CN(CCN(CC(C)O)CC(C)O)CC(C)O (stereo not drawn)",
    "Classification": "inactive"
  },
  {
    "Compound": "CCOC(=O)COc1ccc2c(c1)CC(NCC(O)c1cccc(Cl)c1)CC2 (stereo not drawn)",
    "Classification": "active"
  },
  {
    "Compound": "Cc1ccc(C)c(O)c1",
    "Classification": "inactive"
  },
  {
    "Compound": "CCCC(=O)OCC",
    "Classification": "inactive"
  },
  {
    "Compound": "O=C(CCCCCCCCc1cccnc1)N1CCC(C=C(c2ccccc2)c2ccccc2)CC1",
    "Classification": "active"
  },
  {
    "Compound": "C1N2CN3CN1CN(C2)C3",
    "Classification": "inactive"
  },
  {
    "Compound": "CCOc1cccc(-n2cc(C(=O)N3CCN(c4cc(C(=O)O)c5ccccc5c4)CC3)nc2-c2ccc(C)cc2)c1",
    "Classification": "active"
  }
]

* * *

Read-out: urokinase plasminogen activator (uPA), PLAU (gene 5328)
Protocol details: BSK_BE3C_uPA: BioMAP Diversity Plus: BE3C Assay for urokinase plasminogen activator (uPA) Biomarker Activity (AID 2283038)
Condition label: primary human bronchial epithelial cells; actives raise or lower the signal
Calls of active or inactive are those of the source. How the source made its calls: active means hit-call score of the fitted dose curve at least 0.9, where 1 is the maximum; inactive means score below 0.9.
Possible outcomes: active, inactive

[
  {
    "Compound": "COc1ccc(/C=C/S(=O)(=O)NC(=O)c2ccc(C)cc2Cl)cc1",
    "Classification": "inactive"
  },
  {
    "Compound": "Cn1c(=O)c2c(ncn2C)n(C)c1=O",
    "Classification": "inactive"
  },
  {
    "Compound": "COc1ccc(-n2nc(C(F)F)cc2-c2ccc(S(C)=O)cc2)cc1 (stereo not drawn)",
    "Classification": "inactive"
  },
  {
    "Compound": "COC(=O)CC(=O)OC",
    "Classification": "inactive"
  },
  {
    "Compound": "Cn1c(=O)cc(Oc2ccc(F)cc2F)c2cnc(NCC(C)(C)O)nc21",
    "Classification": "inactive"
  },
  {
    "Compound": "CCN(C(=O)c1cc(C)cc(OC[C@H](C)Nc2ccncc2)c1)C(C)C",
    "Classification": "inactive"
  },
  {
    "Compound": "O=C(OC[C@H]1O[C@@H](OC(=O)c2cc(O)c(O)c(OC(=O)c3cc(O)c(O)c(O)c3)c2)[C@H](OC(=O)c2cc(O)c(O)c(OC(=O)c3cc(O)c(O)c(O)c3)c2)[C@@H](OC(=O)c2cc(O)c(O)c(OC(=O)c3cc(O)c(O)c(O)c3)c2)[C@@H]1OC(=O)c1cc(O)c(O)c(OC(=O)c2cc(O)c(O)c(O)c2)c1)c1cc(O)c(O)c(OC(=O)c2cc(O)c(O)c(O)c2)c1",
    "Classification": "active"
  },
  {
    "Compound": "CCOC(=O)COc1ccc2c(c1)CC(NCC(O)c1cccc(Cl)c1)CC2 (stereo not drawn)",
    "Classification": "active"
  },
  {
    "Compound": "CCCCCCc1ccc(O)cc1O",
    "Classification": "active"
  },
  {
    "Compound": "Clc1nc(Cl)c(Cl)c(Cl)c1Cl",
    "Classification": "inactive"
  },
  {
    "Compound": "CCCCCCCCCCCCc1ccccc1",
    "Classification": "inactive"
  },
  {
    "Compound": "CN(C)c1ccc(N=NS(=O)(=O)O)cc1",
    "Classification": "inactive"
  },
  {
    "Compound": "O=C(O)CCN(C1(C(=O)NO)CCCC1)S(=O)(=O)c1ccc(Oc2ccc(F)cc2)cc1",
    "Classification": "inactive"
  },
  {
    "Compound": "Cc1ccc(C)c(O)c1",
    "Classification": "inactive"
  },
  {
    "Compound": "CCOC(=O)CC(CC(=O)OCC)(OC(C)=O)C(=O)OCC",
    "Classification": "inactive"
  },
  {
    "Compound": "COC(=O)c1c(Cl)c(Cl)c(C(=O)OC)c(Cl)c1Cl",
    "Classification": "inactive"
  },
  {
    "Compound": "CCCCCCCCCCCCCCCO",
    "Classification": "inactive"
  },
  {
    "Compound": "Cc1ccc(S(=O)(=O)O)cc1C",
    "Classification": "inactive"
  },
  {
    "Compound": "O=C(CCCCCCCCc1cccnc1)N1CCC(C=C(c2ccccc2)c2ccccc2)CC1",
    "Classification": "active"
  },
  {
    "Compound": "O=C(O)c1cccc(N(Cc2cccnc2)c2ccc(OC(F)F)c(OC(F)F)c2)c1",
    "Classification": "inactive"
  },
  {
    "Compound": "CCNc1ccccc1",
    "Classification": "inactive"
  },
  {
    "Compound": "CC(C)CCCCCCOC(=O)c1ccc(C(=O)OCCCCCCC(C)C)c(C(=O)OCCCCCCC(C)C)c1",
    "Classification": "inactive"
  },
  {
    "Compound": "NC(=O)NO",
    "Classification": "inactive"
  }
]

* * *

Subject of test: CCAAT/enhancer-binding protein beta (Homo sapiens) (UniProt P17676)
Sequence (P17676 whole entry, looked up): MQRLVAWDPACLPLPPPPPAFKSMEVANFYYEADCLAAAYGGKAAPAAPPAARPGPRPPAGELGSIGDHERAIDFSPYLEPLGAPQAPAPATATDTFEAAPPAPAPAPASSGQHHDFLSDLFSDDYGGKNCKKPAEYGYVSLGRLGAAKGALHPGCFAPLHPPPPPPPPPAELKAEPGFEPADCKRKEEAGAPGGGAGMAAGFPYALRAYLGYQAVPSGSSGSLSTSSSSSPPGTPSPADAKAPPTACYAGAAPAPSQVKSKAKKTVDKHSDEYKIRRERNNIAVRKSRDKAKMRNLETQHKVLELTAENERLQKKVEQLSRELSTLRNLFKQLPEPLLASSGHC
Protocol details: ATG_C_EBP_CIS: Attagene CIS-FACTORIAL HepG2 Assay for human CCAAT/Enhancer Binding Protein (C/EBP) beta (AID 2282927)
Condition label: HepG2 Attagene cis-factorial transcription factor reporter; actives raise or lower the signal
Experimental: ATG_CIS is a cell-based, multiplexed-readout assay that uses HepG2, a human liver cell line, with measurements taken at 24 hours after chemical dosing in a 24-well plate.ATG_C_EBP_CIS is one of 52 assay component(s) measured or calculated from the ATG_CIS assay. […] This assay endpoint, ATG_C_EBP_CIS, was analyzed with bidirectional fitting relative to DMSO as the negative control and baseline of activity. […]
Activity calls are given as the source filed them. Rule for the calls: active = hit-call score of the fitted dose curve at least 0.9, where 1 is the maximum; inactive = score below 0.9.
Possible outcomes: TRUE = active, FALSE = inactive

[
  {
    "Compound": "O=C(OC[C@H]1O[C@@H](OC(=O)c2cc(O)c(O)c(OC(=O)c3cc(O)c(O)c(O)c3)c2)[C@H](OC(=O)c2cc(O)c(O)c(OC(=O)c3cc(O)c(O)c(O)c3)c2)[C@@H](OC(=O)c2cc(O)c(O)c(OC(=O)c3cc(O)c(O)c(O)c3)c2)[C@@H]1OC(=O)c1cc(O)c(O)c(OC(=O)c2cc(O)c(O)c(O)c2)c1)c1cc(O)c(O)c(OC(=O)c2cc(O)c(O)c(O)c2)c1",
    "Classification": "FALSE"
  },
  {
    "Compound": "O=C(O)CC(O)C(=O)O (stereo not given)",
    "Classification": "FALSE"
  },
  {
    "Compound": "CC/C(=C\\C(=N/O)C(N)=O)C(C)[N+](=O)[O-] (stereo not given)",
    "Classification": "FALSE"
  },
  {
    "Compound": "CC(C)CCCCCCOC(=O)c1ccc(C(=O)OCCCCCCC(C)C)c(C(=O)OCCCCCCC(C)C)c1",
    "Classification": "FALSE"
  },
  {
    "Compound": "C1=CCCC=CCCC=CCC1",
    "Classification": "FALSE"
  },
  {
    "Compound": "O=C(CCCCCCCCc1cccnc1)N1CCC(C=C(c2ccccc2)c2ccccc2)CC1",
    "Classification": "TRUE"
  },
  {
    "Compound": "COc1ccc(-n2nc(C(F)F)cc2-c2ccc(S(C)=O)cc2)cc1 (stereo not given)",
    "Classification": "FALSE"
  },
  {
    "Compound": "CNCc1ccc(NC(=O)c2c[nH]c3c2C(=O)CCC3)cc1",
    "Classification": "FALSE"
  },
  {
    "Compound": "C=CC(=C)CCC=C(C)C",
    "Classification": "FALSE"
  },
  {
    "Compound": "CC(C)c1cccc(C(C)C)c1N1C(=O)c2ccc(O)cc2C1=O",
    "Classification": "FALSE"
  },
  {
    "Compound": "CCc1cc(SCc2sc(-c3ccc(C(F)(F)F)cc3)nc2CN2CCN(c3ccc(OC)cc3)CC2)ccc1OCC(=O)O",
    "Classification": "FALSE"
  },
  {
    "Compound": "CCN(C(=O)c1cc(C)cc(OC[C@H](C)Nc2ccncc2)c1)C(C)C",
    "Classification": "FALSE"
  },
  {
    "Compound": "CC(C)(O)c1coc(S(=O)(=O)NC(=O)Nc2c3c(cc4c2CCC4)CCC3)c1",
    "Classification": "FALSE"
  },
  {
    "Compound": "CC(C)=CCC/C(C)=C\\CO",
    "Classification": "FALSE"
  },
  {
    "Compound": "O=C(O)c1cccc(Oc2ccccc2)c1",
    "Classification": "FALSE"
  },
  {
    "Compound": "CCOC(=O)CC(CC(=O)OCC)(OC(C)=O)C(=O)OCC",
    "Classification": "FALSE"
  },
  {
    "Compound": "CNS(=O)(=O)c1cc(C(=O)N2CCC(CCN3C4CCC3CC(n3c(C)nc5ccccc53)C4)(c3cccc(F)c3)CC2)c(Cl)cc1F (stereo not given)",
    "Classification": "FALSE"
  },
  {
    "Compound": "O=C1CCCCCN1",
    "Classification": "FALSE"
  },
  {
    "Compound": "CC(=O)OCCC(C)C",
    "Classification": "FALSE"
  },
  {
    "Compound": "NC(=O)NO",
    "Classification": "FALSE"
  },
  {
    "Compound": "Cc1ccc(C)c(O)c1",
    "Classification": "FALSE"
  },
  {
    "Compound": "CC[C@H]1CC[C@H](NCc2cc3c(cc2OC)[C@H]2C[C@H]2C(=O)N3C)[C@H](c2ccccc2)N1",
    "Classification": "TRUE"
  },
  {
    "Compound": "Cc1ccc(N)cc1O",
    "Classification": "FALSE"
  },
  {
    "Compound": "O=C1OC(=O)C2C3C=CC(C3)C12 (stereo not given)",
    "Classification": "FALSE"
  },
  {
    "Compound": "COc1ccc(/C=C/S(=O)(=O)NC(=O)c2ccc(C)cc2Cl)cc1",
    "Classification": "FALSE"
  },
  {
    "Compound": "COCCOc1cc2cc(C(=O)NC3CCN(C(C)C)CC3)n(CC(=O)Nc3ccc(Cl)cn3)c2cn1",
    "Classification": "FALSE"
  },
  {
    "Compound": "CCCCC(CC)COC(=O)c1ccc(C(=O)OCC(CC)CCCC)cc1 (stereo not given)",
    "Classification": "FALSE"
  },
  {
    "Compound": "Nc1cccc(N)c1",
    "Classification": "FALSE"
  },
  {
    "Compound": "Nc1nc2ncc(CNc3ccc(C(=O)N[C@@H](CCC(=O)O)C(=O)O)cc3)nc2c(=O)[nH]1",
    "Classification": "FALSE"
  },
  {
    "Compound": "CCCC(=O)OCC",
    "Classification": "FALSE"
  },
  {
    "Compound": "Cc1c(-c2cccnc2)c2ccccc2n1CCCCC(=O)O",
    "Classification": "FALSE"
  },
  {
    "Compound": "CCOC(=O)c1ccc(C2CCC(NC[C@H](O)COc3ccc(O)c(NS(C)(=O)=O)c3)CC2)cc1 (stereo not given in full)",
    "Classification": "TRUE"
  },
  {
    "Compound": "CC(=O)OC[C@H]1O[C@@](COC(C)=O)(O[C@H]2O[C@H](COC(C)=O)[C@@H](OC(C)=O)[C@H](OC(C)=O)[C@H]2OC(C)=O)[C@@H](OC(C)=O)[C@@H]1OC(C)=O",
    "Classification": "FALSE"
  },
  {
    "Compound": "CN(C)c1ccc(N=NS(=O)(=O)O)cc1",
    "Classification": "FALSE"
  },
  {
    "Compound": "CC(O)CN(CCN(CC(C)O)CC(C)O)CC(C)O (stereo not given)",
    "Classification": "FALSE"
  }
]
